target: Human CB2R (Cannabanoid receptor 2) (Homo sapiens (Human)); assay: CB-2 in vitro cAMP (HTRF) assay in HEK-293 cells; settings: HEK-293 cells stably transfected with human CB2R, 250 nM Forskolin, mean where tested more than once, read-out: CB-2 (HEK_cAMP) EC50
Sequence (P34972 whole entry): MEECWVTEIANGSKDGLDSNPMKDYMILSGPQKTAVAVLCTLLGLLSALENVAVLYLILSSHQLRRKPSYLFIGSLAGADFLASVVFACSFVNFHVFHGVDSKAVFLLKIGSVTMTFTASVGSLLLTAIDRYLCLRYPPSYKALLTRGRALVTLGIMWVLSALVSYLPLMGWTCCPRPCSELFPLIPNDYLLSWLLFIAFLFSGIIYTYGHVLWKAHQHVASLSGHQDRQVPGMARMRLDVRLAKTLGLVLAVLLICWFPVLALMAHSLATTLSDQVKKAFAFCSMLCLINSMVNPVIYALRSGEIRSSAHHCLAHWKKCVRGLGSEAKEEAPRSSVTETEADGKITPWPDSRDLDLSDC
metric.name: EC50

# example entries with known answers
Query NC(=O)c1ccc(-n2nc(C3CCN(S(=O)(=O)C(F)(F)F)CC3)c3cc(C(c4ccc(Cl)cc4)c4ccc(Cl)cc4)ccc32)cc1 yields EC50 of 2.12 µM

Query COC(=O)Cn1nc(N2CCN(S(=O)(=O)C(F)(F)F)CC2)c2cc(C(c3ccc(Cl)cc3)c3ccc(Cl)cc3)ccc21 yields EC50 of > 10 µM

Query O=C(O)COCCn1nc(N2CCN(S(=O)(=O)C(F)(F)F)CC2)c2cc(C(c3ccc(Cl)cc3)c3ccc(Cl)cc3)ccc21 yields EC50 of > 10 µM

Query COc1ccc(S(=O)(=O)N2CCC(Nc3n[nH]c4ccc(C(c5ccc(Cl)cc5)c5ccc(Cl)cc5)cc34)CC2)cc1 yields EC50 of > 10 µM

Provide EC50 for all items below, preserving their order.
1. O=C(O)c1cccc(CN2CCC(c3c4cc(C(c5ccc(Cl)cc5)c5ccc(Cl)cc5)ccc4nn3C3CC3)CC2)c1
2. O=C(O)c1cccc(CN2CCC(c3nn(C4CC4)c4ccc(C(c5ccc(F)cc5)c5ccc(Cl)cc5)cc34)CC2)c1 (stereo not drawn)

Ans.
1: > 5 µM; 2: > 10 µM

---

Provide the recorded PLASMA Mean Conc. (ng/mL) ± Std. Dev for the entries that follow.
Test: Mouse Fast PK/BBB
Format: in vivo, Male C57bl/6j mice
Conditions: oral, Dose 30 mg/kg, Time 1 hr
Experimental: Male C57bl/6j mice were ordered from Charles River at 22-25 g and housed 3 per cage. They were fed standard chow (Purina 5001). Male C57bl/6j mice were dosed with test compounds at 20 mg/kg or 30 mg/kg. Plasma was collected via retro-orbital bleeding at 1 hr and 4 hrs after dosing. Whole brain without cerebellum was collected at 4 hrs after dosing. Wet brain weight was recorded before freezing. Brains were homogenized in saline and sent for analysis for determination of concentration of test compound.
Numbers only, in ng/mL.

Query O=C(O)c1ccc([C@@H](c2ccc(Cl)cc2)c2ccc3[nH]nc(C4CCN(S(=O)(=O)C(F)(F)F)CC4)c3c2)cc1 yields PLASMA Mean Conc. (ng/mL) ± Std. Dev of 1763

Query O=C(O)c1ccc([C@@H](c2ccc(Cl)cc2)c2ccc3[nH]nc(N4CCN(S(=O)(=O)C(F)(F)F)CC4)c3c2)cc1 yields PLASMA Mean Conc. (ng/mL) ± Std. Dev of 8693

Query NC(=O)c1cccc(CN2CCC(c3nn(C4CC4)c4ccc(C(c5ccc(Cl)cc5)c5ccc(Cl)cc5)cc34)CC2)c1 yields PLASMA Mean Conc. (ng/mL) ± Std. Dev of 333.5

Others:
Query O=C(O)c1cccc(CN2CCC(c3nn(C4CC4)c4ccc(C(c5ccc(Cl)cc5)c5ccc(Cl)cc5)cc34)CC2)c1 yields PLASMA Mean Conc. (ng/mL) ± Std. Dev of 7373

---

molecular target: Human CB1R (Cannabanoid receptor 1) (Homo sapiens (Human), UniProt P21554); experiment: CB-1 in vitro cAMP (HTRF) assay in HEK-293 cells; conditions: HEK-293 cells stably transfected with human CB1R, 250 nM Forskolin, mean where tested more than once, read-out: CB-1 (HEK_cAMP) EC50
Sequence (P21554 whole entry): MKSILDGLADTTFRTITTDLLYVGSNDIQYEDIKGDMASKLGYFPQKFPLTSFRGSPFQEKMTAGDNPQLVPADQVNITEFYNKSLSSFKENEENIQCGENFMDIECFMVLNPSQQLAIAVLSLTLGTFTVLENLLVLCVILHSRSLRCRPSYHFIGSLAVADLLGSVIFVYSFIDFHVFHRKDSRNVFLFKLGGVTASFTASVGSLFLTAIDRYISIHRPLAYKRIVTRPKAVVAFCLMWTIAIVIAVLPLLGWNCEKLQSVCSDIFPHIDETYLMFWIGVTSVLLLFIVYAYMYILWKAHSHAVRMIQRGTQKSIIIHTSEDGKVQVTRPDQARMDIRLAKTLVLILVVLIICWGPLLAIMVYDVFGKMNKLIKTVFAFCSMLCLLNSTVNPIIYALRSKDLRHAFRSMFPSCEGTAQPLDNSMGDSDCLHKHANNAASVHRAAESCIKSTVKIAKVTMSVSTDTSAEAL
Field: label. Allowed values: 1 (yes) (EC50 < 100 nM) or 0 (no) (EC50 >= 100 nM).

Previously resolved entries follow.
Qu. Hi there! Is EC50 for CCOC(=O)N1CCC(c2n[nH]c3ccc(C(c4ccc(Cl)cc4)c4ccc(Cl)cc4)cc23)CC1 below 100 nM, do you know?
Ans. 1 (yes)

Qu. Hi there! Is EC50 for O=C(O)c1cccc(CN2CCC(c3nn(C4CC4)c4ccc(C(c5ccccc5)c5ccc(Cl)cc5)cc34)CC2)c1 (stereo not drawn) below 100 nM, do you know?
Ans. 1 (yes)

Qu. Hi there! Is EC50 for O=C(O)COc1ccc(N2CCC(c3c4cc(C(c5ccc(Cl)cc5)c5ccc(Cl)cc5)ccc4nn3C3CC3)CC2)cc1 below 100 nM, do you know?
Ans. 0 (no)

Qu. Hi there! Is EC50 for CNC(=O)c1ccc(S(=O)(=O)N2CCC(c3c4cc(C(c5ccc(Cl)cc5)c5ccc(Cl)cc5)ccc4nn3C3CC3)CC2)cn1 below 100 nM, do you know?
Ans. 1 (yes)

Qu. Hi there! Is EC50 for NC(=O)COc1ccc(N2CCC(c3n[nH]c4ccc(C(c5ccc(Cl)cc5)c5ccc(Cl)cc5)cc34)CC2)cc1 [Compound 224] below 100 nM, do you know?
Ans. 0 (no)

Qu. Hi there! Is EC50 for NC(=O)CCS(=O)(=O)N1CCC(c2c3cc(C(c4ccc(Cl)cc4)c4ccc(Cl)cc4)ccc3nn2C2CC2)CC1 below 100 nM, do you know?
Ans. 0 (no)

Qu. Hi there! Is EC50 for O=C(O)c1ccc([C@H](c2ccc(Cl)cc2)c2ccc3[nH]nc(N4CCN(S(=O)(=O)C(F)(F)F)CC4)c3c2)cc1 below 100 nM, do you know?
Ans. 0 (no)

Qu. Hi there! Is EC50 for O=S(=O)(N1CCC(c2nn(-c3ccccc3Cl)c3ccc(C(c4ccc(Cl)cc4)c4ccc(Cl)cc4)cc23)CC1)C(F)(F)F below 100 nM, do you know?
Ans. 1 (yes)

Qu. Hi there! Is EC50 for O=S(=O)(c1ccc(C(F)(F)F)cc1)N1CCC(c2n[nH]c3ccc(C(c4ccc(Cl)cc4)c4ccc(Cl)cc4)cc23)CC1 below 100 nM, do you know?
Ans. 1 (yes)

Qu. Hi there! Is EC50 for NC(=O)c1ccccc1S(=O)(=O)N1CCC(c2nn(C3CC3)c3ccc(C(c4ccc(Cl)cc4)c4ccc(Cl)cc4)cc23)CC1 below 100 nM, do you know?
Ans. 0 (no)

Others:
Qu. Hi there! Is EC50 for O=C(O)CC(=O)N1CCC(c2n[nH]c3ccc(C(c4ccc(Cl)cc4)c4ccc(Cl)cc4)cc23)CC1 below 100 nM, do you know?
Ans. 0 (no)

Qu. Hi there! Is EC50 for NC(=O)c1cccc(S(=O)(=O)N2CCC(c3n[nH]c4ccc(C(c5ccc(Cl)cc5)c5ccc(Cl)cc5)cc34)CC2)c1 [Compound 65] below 100 nM, do you know?
Ans. 1 (yes)

Qu. Hi there! Is EC50 for NC(=O)CC(=O)N1CCC(c2nn(C3CC3)c3ccc(C(c4ccc(Cl)cc4)c4ccc(Cl)cc4)cc23)CC1 below 100 nM, do you know?
Ans. 0 (no)

Qu. Hi there! Is EC50 for CNC(=O)c1cc(S(=O)(=O)N2CCC(c3c4cc(C(c5ccc(Cl)cc5)c5ccc(Cl)cc5)ccc4nn3C3CC3)CC2)ccc1Cl below 100 nM, do you know?
Ans. 1 (yes)

Qu. Hi there! Is EC50 for Nc1ccc(C(c2ccc(Cl)cc2)c2ccc3[nH]nc(N4CCN(S(=O)(=O)C(F)(F)F)CC4)c3c2)cc1 (stereo not drawn) below 100 nM, do you know?
Ans. 1 (yes)

Qu. Hi there! Is EC50 for NC(=O)Cc1ccc(N2CCC(c3n[nH]c4ccc(C(c5ccc(Cl)cc5)c5ccc(Cl)cc5)cc34)CC2)cc1 below 100 nM, do you know?
Ans. 0 (no)

Qu. Hi there! Is EC50 for NC(=O)c1ccc(CN2CCC(c3nn(C4CC4)c4ccc(C(c5ccc(Cl)cc5)c5ccc(Cl)cc5)cc34)CC2)cc1 below 100 nM, do you know?
Ans. 0 (no)

Qu. Hi there! Is EC50 for O=C(O)CCS(=O)(=O)N1CCC(c2c3cc(C(c4ccc(Cl)cc4)c4ccc(Cl)cc4)ccc3nn2C2CC2)CC1 below 100 nM, do you know?
Ans. 0 (no)

Cited source: patent US9682940B2
